Each entry below carries its recorded viability, T/C.
- Tested on: OVCAR-8 complex spheroid, growth inhibition
- ASSAY OVERVIEW: Anticancer human tumor OVCAR-8 cell line growth inhibition [Asc];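 note: spheroids exposed to agents for 7 days before readout; percent viability relative to DMSO vehicle wells taken as 100%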
- EXPERIMENTAL SETUP: second compound 10 µM; first compound 1 µM; stronger effect = lower value
The reply should contain only the number, in %.

Take a look at these entries with their results.
C#Cc1c(F)ccc2cc(O)cc(-c3ncc4c(N5CC6CCC(C5)N6)nc(OCC56CCCN5CC(F)C6)nc4c3F)c12 (stereo not drawn) + Cc1c(S(C)(=O)=O)c(-c2cc(F)cc(N3CCN(c4ccc(NS(=O)(=O)c5ccc(NC(CCN6CCC(C(=O)OCCCP(=O)(O)O)CC6)CSc6ccccc6)c(S(=O)(=O)C(F)(F)F)c5)cc4)CC3)c2)c(-c2ccc(Cl)cc2)n1C(C)C: 113
COc1c(OCCCN2CCOCC2)ccc2c3n(c(=NC(=O)c4cnc(N)nc4)nc12)CCN3 + Cc1c(S(C)(=O)=O)c(-c2cc(F)cc(N3CCN(c4ccc(NS(=O)(=O)c5ccc(NC(CCN6CCC(C(=O)OCCCP(=O)(O)O)CC6)CSc6ccccc6)c(S(=O)(=O)C(F)(F)F)c5)cc4)CC3)c2)c(-c2ccc(Cl)cc2)n1C(C)C: 76.2
C=C(F)C(=O)N1CCN(c2nc(OCC3CCCN3C)nc3c2CCN(c2cccc4cccc(Cl)c24)C3)CC1CC#N (stereo not drawn) + Cc1c(S(C)(=O)=O)c(-c2cc(F)cc(N3CCN(c4ccc(NS(=O)(=O)c5ccc(NC(CCN6CCC(C(=O)OCCCP(=O)(O)O)CC6)CSc6ccccc6)c(S(=O)(=O)C(F)(F)F)c5)cc4)CC3)c2)c(-c2ccc(Cl)cc2)n1C(C)C: 121
CCN1CCN(Cc2ccc(Nc3ncc(F)c(-c4cc(F)c5nc(C)n(C(C)C)c5c4)n3)nc2)CC1 + Cc1c(S(C)(=O)=O)c(-c2cc(F)cc(N3CCN(c4ccc(NS(=O)(=O)c5ccc(NC(CCN6CCC(C(=O)OCCCP(=O)(O)O)CC6)CSc6ccccc6)c(S(=O)(=O)C(F)(F)F)c5)cc4)CC3)c2)c(-c2ccc(Cl)cc2)n1C(C)C: 109
C=CC(=O)N1CCN(c2nc(=O)n(-c3c(C)ccnc3C(C)C)c3nc(-c4c(O)cccc4F)c(F)cc23)C(C)C1 (stereo not drawn) + Cc1c(S(C)(=O)=O)c(-c2cc(F)cc(N3CCN(c4ccc(NS(=O)(=O)c5ccc(NC(CCN6CCC(C(=O)OCCCP(=O)(O)O)CC6)CSc6ccccc6)c(S(=O)(=O)C(F)(F)F)c5)cc4)CC3)c2)c(-c2ccc(Cl)cc2)n1C(C)C: 91.6

Hey, OVCAR-8 complex spheroid, growth inhibition data for CNC(C)C(=O)NC1CN(S(=O)(=O)c2cccc(S(=O)(=O)N3CCC4CCC(C(=O)NC(c5ccccc5)c5ccccc5)N4C(=O)C(NC(=O)C(C)NC)C3)c2)CCC2CCC(C(=O)NC(c3ccccc3)c3ccccc3)N2C1=O (stereo not drawn) + Cc1c(S(C)(=O)=O)c(-c2cc(F)cc(N3CCN(c4ccc(NS(=O)(=O)c5ccc(NC(CCN6CCC(C(=O)OCCCP(=O)(O)O)CC6)CSc6ccccc6)c(S(=O)(=O)C(F)(F)F)c5)cc4)CC3)c2)c(-c2ccc(Cl)cc2)n1C(C)C : viability, T/C came out at 59.2

Form field, viability, T/C with OVCAR-8 complex spheroid, growth inhibition, item O=C(c1cc(Cc2n[nH]c(=O)c3ccccc23)ccc1F)N1CCN(C(=O)C2CC2)CC1 + Cc1c(S(C)(=O)=O)c(-c2cc(F)cc(N3CCN(c4ccc(NS(=O)(=O)c5ccc(NC(CCN6CCC(C(=O)OCCCP(=O)(O)O)CC6)CSc6ccccc6)c(S(=O)(=O)C(F)(F)F)c5)cc4)CC3)c2)c(-c2ccc(Cl)cc2)n1C(C)C : 124

Item O=C(c1ccc(F)c(F)c1Nc1ccc(I)cc1F)N1CC(O)([C@@H]2CCCCN2)C1 + Cc1c(S(C)(=O)=O)c(-c2cc(F)cc(N3CCN(c4ccc(NS(=O)(=O)c5ccc(NC(CCN6CCC(C(=O)OCCCP(=O)(O)O)CC6)CSc6ccccc6)c(S(=O)(=O)C(F)(F)F)c5)cc4)CC3)c2)c(-c2ccc(Cl)cc2)n1C(C)C ; assay system OVCAR-8 complex spheroid, growth inhibition; viability, T/C reported as 107

---

- Tested on: OVCAR-8 complex spheroid, growth inhibition
- ASSAY OVERVIEW: Anticancer human tumor OVCAR-8 cell line growth inhibition [Asc];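 note: spheroids exposed to agents for 7 days before readout; percent viability relative to DMSO vehicle wells taken as 100%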
- EXPERIMENTAL SETUP: second compound 0.316 µM; first compound 0.0949 µM; stronger effect = lower value
MEASURED QUANTITY: viability, T/C (%)
All answers are understood in %, so give the number only.

CCN1C(C(=O)NC23CCC(C(=O)O)(CC2)CC3)C(c2cccc(Cl)c2F)C2(C(=O)Nc3cc(Cl)ccc32)C12CCCCC2 (stereo not drawn) + Cc1c(S(C)(=O)=O)c(-c2cc(F)cc(N3CCN(c4ccc(NS(=O)(=O)c5ccc(NC(CCN6CCC(C(=O)OCCCP(=O)(O)O)CC6)CSc6ccccc6)c(S(=O)(=O)C(F)(F)F)c5)cc4)CC3)c2)c(-c2ccc(Cl)cc2)n1C(C)C: 94.8
NC(=O)C(=Cn1cnc(-c2cc(C(F)(F)F)cc(C(F)(F)F)c2)n1)c1cncnc1 + CNC(C)C(=O)NC1CN(S(=O)(=O)c2cccc(S(=O)(=O)N3CCC4CCC(C(=O)NC(c5ccccc5)c5ccccc5)N4C(=O)C(NC(=O)C(C)NC)C3)c2)CCC2CCC(C(=O)NC(c3ccccc3)c3ccccc3)N2C1=O: 31.3

We next turn to a different molecule, shown below.
viability, T/C reported for this molecule Cc1nc(N2CCC3(CC2)COC(C)C3N)c(CO)nc1Sc1ccnc(N)c1Cl (stereo not drawn) + CNC(C)C(=O)NC1CN(S(=O)(=O)c2cccc(S(=O)(=O)N3CCC4CCC(C(=O)NC(c5ccccc5)c5ccccc5)N4C(=O)C(NC(=O)C(C)NC)C3)c2)CCC2CCC(C(=O)NC(c3ccccc3)c3ccccc3)N2C1=O : 109

---

viability, T/C for assorted molecules
- System: OVCAR-8 complex spheroid, growth inhibition
- ASSAY OVERVIEW: Anticancer human tumor OVCAR-8 cell line growth inhibition [Asc];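 note: spheroids exposed to agents for 7 days before readout; percent viability relative to DMSO vehicle wells taken as 100%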
- EXPERIMENTAL SETUP: second compound 3.16 µM; first compound 0.01 µM; stronger effect = lower value

Before answering, review these 2 worked examples.
NC1CCC(NC2CC2c2ccccc2)CC1 (stereo not drawn) + Cc1c(S(C)(=O)=O)c(-c2cc(F)cc(N3CCN(c4ccc(NS(=O)(=O)c5ccc(NC(CCN6CCC(C(=O)OCCCP(=O)(O)O)CC6)CSc6ccccc6)c(S(=O)(=O)C(F)(F)F)c5)cc4)CC3)c2)c(-c2ccc(Cl)cc2)n1C(C)C: 118%
O=C(c1ccc(F)c(F)c1Nc1ccc(I)cc1F)N1CC(O)([C@@H]2CCCCN2)C1 + Cc1c(S(C)(=O)=O)c(-c2cc(F)cc(N3CCN(c4ccc(NS(=O)(=O)c5ccc(NC(CCN6CCC(C(=O)OCCCP(=O)(O)O)CC6)CSc6ccccc6)c(S(=O)(=O)C(F)(F)F)c5)cc4)CC3)c2)c(-c2ccc(Cl)cc2)n1C(C)C: 137%

Now look at this entry.
Please fill in: viability, T/C reported for Cn1ncnc1[C@H]1c2n[nH]c(=O)c3cc(F)cc(c23)N[C@@H]1c1ccc(F)cc1 + Cc1c(S(C)(=O)=O)c(-c2cc(F)cc(N3CCN(c4ccc(NS(=O)(=O)c5ccc(NC(CCN6CCC(C(=O)OCCCP(=O)(O)O)CC6)CSc6ccccc6)c(S(=O)(=O)C(F)(F)F)c5)cc4)CC3)c2)c(-c2ccc(Cl)cc2)n1C(C)C = 115%

---

As shown below, each of these molecules has a reported viability, T/C value.
- Test system: OVCAR-8 complex spheroid, growth inhibition
- ASSAY OVERVIEW: Anticancer human tumor OVCAR-8 cell line growth inhibition [Asc];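 note: spheroids exposed to agents for 7 days before readout; percent viability relative to DMSO vehicle wells taken as 100%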
- EXPERIMENTAL SETUP: second compound 0.0316 µM; first compound 0.01 µM; stronger effect = lower value
Provide the reading as a plain figure in %.

// below: answered molecules
COc1c(OCCCN2CCOCC2)ccc2c3n(c(=NC(=O)c4cnc(N)nc4)nc12)CCN3 + CNC(C)C(=O)NC1CN(S(=O)(=O)c2cccc(S(=O)(=O)N3CCC4CCC(C(=O)NC(c5ccccc5)c5ccccc5)N4C(=O)C(NC(=O)C(C)NC)C3)c2)CCC2CCC(C(=O)NC(c3ccccc3)c3ccccc3)N2C1=O: 92.7
CCN1CCN(Cc2ccc(Nc3ncc(F)c(-c4cc(F)c5nc(C)n(C(C)C)c5c4)n3)nc2)CC1 + Cc1c(S(C)(=O)=O)c(-c2cc(F)cc(N3CCN(c4ccc(NS(=O)(=O)c5ccc(NC(CCN6CCC(C(=O)OCCCP(=O)(O)O)CC6)CSc6ccccc6)c(S(=O)(=O)C(F)(F)F)c5)cc4)CC3)c2)c(-c2ccc(Cl)cc2)n1C(C)C: 96.1
CNC(C)C(=O)NC1CN(S(=O)(=O)c2cccc(S(=O)(=O)N3CCC4CCC(C(=O)NC(c5ccccc5)c5ccccc5)N4C(=O)C(NC(=O)C(C)NC)C3)c2)CCC2CCC(C(=O)NC(c3ccccc3)c3ccccc3)N2C1=O (centres undefined) + Cc1c(S(C)(=O)=O)c(-c2cc(F)cc(N3CCN(c4ccc(NS(=O)(=O)c5ccc(NC(CCN6CCC(C(=O)OCCCP(=O)(O)O)CC6)CSc6ccccc6)c(S(=O)(=O)C(F)(F)F)c5)cc4)CC3)c2)c(-c2ccc(Cl)cc2)n1C(C)C: 94.6

Please turn your attention to the following entry.
# viability, T/C measured on OVCAR-8 complex spheroid, growth inhibition for item O=C(c1ccc(F)c(F)c1Nc1ccc(I)cc1F)N1CC(O)([C@@H]2CCCCN2)C1 + CNC(C)C(=O)NC1CN(S(=O)(=O)c2cccc(S(=O)(=O)N3CCC4CCC(C(=O)NC(c5ccccc5)c5ccccc5)N4C(=O)C(NC(=O)C(C)NC)C3)c2)CCC2CCC(C(=O)NC(c3ccccc3)c3ccccc3)N2C1=O = 99.8

The measured values listed here are drawn from PubChem BioAssay AID1963437.
